Biological target: T1, human TREM2 (Triggering Receptor Expressed on Myeloid cells-2), wild-type (human, UniProt Q9NZC2 19-230)
T1 construct: whole, on cells; also called wt TREM2; human wild-type TREM2
T1 sequence (looked up): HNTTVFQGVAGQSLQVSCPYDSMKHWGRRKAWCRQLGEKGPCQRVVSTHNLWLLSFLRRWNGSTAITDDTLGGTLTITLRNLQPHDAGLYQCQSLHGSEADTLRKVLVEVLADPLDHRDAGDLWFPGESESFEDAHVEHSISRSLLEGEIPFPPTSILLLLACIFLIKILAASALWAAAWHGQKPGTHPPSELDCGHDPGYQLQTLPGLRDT
Assay: hybridoma supernatant screen: peptide ELISA and detection of TREM2 on the cell surface

{"Binder": "antibody clone 10C3 (antibody, V domains shown, Rat monoclonal IgG from hybridoma; also called TREMX antibody) VH: EVKLLESGGGLVQPGGSMRLSCAASGFTFTDFYMNWIRQPAGETPEWLGLIRNKTKGYTTEYNPSVKGRFTISRDNTQNMLYLQMNSLRPEDTATYYCARIGTNNGGSLDYWGQGVMVTVSS VL: DILIIQSPASLTVSAGARVTMSCKSSQSLLYSENNQDYLAWYQQKPGQFPKLLIYGASNRHTGVPDRFTGSGSGTDFTLTISSVQAEDLADYYCEQTYSYPYTFGAGTKLELK", "binding result": "binds"}
{"Binder": "antibody clone 7A12 (antibody, V domains shown, Rat monoclonal IgG from hybridoma; also called TREMX antibody) VH: EVKLLESGGGLVQPGGSMRLSCAASGFTFTDFYMNWIRQPAGKAPEWLGLIRNKANGYTTQYNPSVKGRFTISRDNTQNMLYLQMNTLRGEDTATYYCARIGINNGGSLDYWGQGVMVTVSS VL: DILINQSPASLTVSAGEKVTMSCKSSQSLLYSEKNQDYLAWYQQKPGQSPKLLMYGASYRHTGVPDRFTGSGSGTDFTLTISSVQAEDLADYYCEQTYSYPYTFGAGTKLELK", "binding result": "binds"}
{"Binder": "antibody clone 1G6 (antibody, V domains shown, Rat monoclonal IgG from hybridoma; also called TREMX antibody) VH: EVKLLESGGGLVQPGGSLRLSCVASGFTFTDFYMNWIRQPAGKAPEWLGLIRNKANGFTTEYNPSVKGRFTISRDNTQHMLYLQMNTLRAEDTATYYCARIGINNGGSLDYWGQGVMVTVSS VL: DILINQSPASLTVSTGEKVTMSCKSSQSLLYSENKQDYLAWYQQKPGQFPKLLIYGASNRHTGVPDRFTGSGSGTDFTLTINIVQAEDLADYYCEQTYSYPYTFGAGTKLELK", "binding result": "binds"}
